test system: Saccharomyces cerevisiae; test: protein stability index of tFT-peptide fusion (C-terminal peptide) (PSI (0-1 scale)); higher = more stable (slower turnover); settings: genetic background: das1 deletion; temperature: 30 C
parameter: protein stability index
Response field accepts a number only; no unit should be typed.

Below, each entry is followed by its recorded protein stability index result.
querySequence | assayTarget | endpointResult
GKWFSWNAIWIR | Saccharomyces cerevisiae | 0.101
CVILVSFFCYSA | Saccharomyces cerevisiae | 0.142

Please fill in: protein stability index reported for "SVVLCRFVLRIF" = 0.136

Per the record, "FSLRLFLVLALS" has protein stability index of 0.261

====

tested on: Saccharomyces cerevisiae; test: protein stability index of tFT-peptide fusion (C-terminal peptide) (PSI (0-1 scale)); higher = more stable (slower turnover); settings: genetic background: wild type; temperature: 30 C
# cutoff 0.7 applies to protein stability index; >= gives YES, < gives NO

Some entries whose results are on file:
querySequence | assignedLabel
IQTINEVRTNYM [RSE1 C-terminal 12 aa] | YES
EPAYDGASVEQQ [THR1 C-terminal 12 aa] | NO
KVEFSKSETKTL [MSL1 C-terminal 12 aa] | NO

Now for a further sequence.
Problem: Identify whether the reported protein stability index of the following sequence is 0.7 or greater: LLYCNIYVYYRF [KAR1 C-terminal 12 aa]
Result: NO

====

Consider the following sequences and their measured protein stability index readings.
tested on: Saccharomyces cerevisiae; assay: protein stability index of tFT-peptide fusion (C-terminal peptide) (PSI (0-1 scale)); higher = more stable (slower turnover); details: genetic background: das1 deletion; temperature: 37 C
// return a plain number; no unit text

Consider the following illustrative entries.
querySequence | protein stability index
IPHLNCCCCLVR | 0.588
LFVLVLLCWMLT | 0.427
LLVFSLLYPCLV | 0.419
GELDVRKLLKYF | 0.768
FNLWCRQLASIE | 0.187
QPSSFDMLGLLL | 0.752
WSWVFVVLRFGR | 0.574
IFIVLDFRCVSS | 0.437
GAVGRWGWVSFV | 0.788
FLPFRVFNFSLV | 0.725

// moving on: another record for protein stability index
Summary line: "CFSLLFYTLSLL" , Saccharomyces cerevisiae, reported protein stability index = 0.53

====

tested on: Saccharomyces cerevisiae; assay: protein stability index of tFT-peptide fusion (C-terminal peptide) (PSI (0-1 scale)); higher = more stable (slower turnover); details: genetic background: wild type; temperature: 30 C
Use condition met when the recorded protein stability index is no lower than 0.3; use condition not met when it is lower.

Before answering, review these 5 worked examples.
querySequence | assignedLabel
LKKTLNGRRKMI | condition not met
VIGLLSYFLVYL | condition met
LMVLISVMFSLG | condition not met
ESSRNILLWRTI | condition not met
FRCPHAVKLVLV | condition not met

Problem: Quick check: does "FRFSSLLYILLS" have protein stability index greater than or equal to 0.3?
Result: condition not met

Problem: Reported protein stability index reaches at least 0.3 for "RHRGHVRLALLN" ?
Result: condition not met

Problem: Does the sequence "RVTYWKAVLVRL" have recorded protein stability index that is 0.3 or more?
Result: condition not met

Problem: Could you tell me if the measured protein stability index of "MSVLAFVCCLSG" reaches 0.3 or more?
Result: condition not met

Problem: Is protein stability index for "QITIYPIPLARF" at or above 0.3?
Result: condition met
